Run Description: AUC (0 to infinity) in female ICR mouse at 25 mg/kg, po administered as single dose measured upto 24 hrs by HPLC analysis
Assay type: ADME, organism-based
Details: in vivo
Listing: AUC(0-inf) of selected compounds
Measured Quantity: AUC(0-inf) (ng·h/mL)

Compound	Measured Quantity	Value Observed
CON=C1CCC(CN2CCN(c3nc(=O)c4cc(C(F)(F)F)cc([N+](=O)[O-])c4s3)CC2)CC1 (centres undefined)	AUC(0-inf)	16900
O=C(O)CON=C1CCC(CN2CCN(c3nc(=O)c4cc(C(F)(F)F)cc([N+](=O)[O-])c4s3)CC2)CC1 (centres undefined)	AUC(0-inf)	1410
O=c1nc(N2CCN(CC3CCCCC3)CC2)sc2c([N+](=O)[O-])cc(C(F)(F)F)cc12	AUC(0-inf)	2310
NCCON=C1CCC(CN2CCN(c3nc(=O)c4cc(C(F)(F)F)cc([N+](=O)[O-])c4s3)CC2)CC1 (centres undefined)	AUC(0-inf)	3840

----------
Listing: Cmax of selected compounds
Run Description: Cmax in female ICR mouse at 25 mg/kg, po administered as single dose measured upto 24 hrs by HPLC analysis
Format: ADME, organism-based
Details: in vivo

Compound	Cmax
NCCON=C1CCC(CN2CCN(c3nc(=O)c4cc(C(F)(F)F)cc([N+](=O)[O-])c4s3)CC2)CC1 (centres undefined)	798 ng/mL
O=c1nc(N2CCN(CC3CCCCC3)CC2)sc2c([N+](=O)[O-])cc(C(F)(F)F)cc12	295 ng/mL
CON=C1CCC(CN2CCN(c3nc(=O)c4cc(C(F)(F)F)cc([N+](=O)[O-])c4s3)CC2)CC1 (centres undefined)	8370 ng/mL
O=C(O)CON=C1CCC(CN2CCN(c3nc(=O)c4cc(C(F)(F)F)cc([N+](=O)[O-])c4s3)CC2)CC1 (centres undefined)	770 ng/mL

----------
Run Description: Acute toxicity in female ICR mouse assessed as lethal dose administered as single oral dose measured for 7 days
Details: in vivo, time 7 day

Compound	LD50 at 168 h
O=C(O)CON=C1CCC(CN2CCN(c3nc(=O)c4cc(C(F)(F)F)cc([N+](=O)[O-])c4s3)CC2)CC1 (configuration not stated)	> 1000 mg/kg
NCCON=C1CCC(CN2CCN(c3nc(=O)c4cc(C(F)(F)F)cc([N+](=O)[O-])c4s3)CC2)CC1 (configuration not stated)	> 1000 mg/kg

----------
Run Description: Tmax in female ICR mouse at 25 mg/kg, po administered as single dose measured upto 24 hrs by HPLC analysis
Assay type: ADME, organism-based
Details: in vivo
Listing: Tmax of selected compounds

Compound	Output Unit	Tmax
O=c1nc(N2CCN(CC3CCCCC3)CC2)sc2c([N+](=O)[O-])cc(C(F)(F)F)cc12	min	120
NCCON=C1CCC(CN2CCN(c3nc(=O)c4cc(C(F)(F)F)cc([N+](=O)[O-])c4s3)CC2)CC1 (centres undefined)	min	60
O=C(O)CON=C1CCC(CN2CCN(c3nc(=O)c4cc(C(F)(F)F)cc([N+](=O)[O-])c4s3)CC2)CC1 (centres undefined)	min	19.8
CON=C1CCC(CN2CCN(c3nc(=O)c4cc(C(F)(F)F)cc([N+](=O)[O-])c4s3)CC2)CC1 (centres undefined)	min	41.4

----------
Tested Target: hERG (KCNH2) (Homo sapiens, UniProt Q12809)
Sequence (Q12809 whole entry): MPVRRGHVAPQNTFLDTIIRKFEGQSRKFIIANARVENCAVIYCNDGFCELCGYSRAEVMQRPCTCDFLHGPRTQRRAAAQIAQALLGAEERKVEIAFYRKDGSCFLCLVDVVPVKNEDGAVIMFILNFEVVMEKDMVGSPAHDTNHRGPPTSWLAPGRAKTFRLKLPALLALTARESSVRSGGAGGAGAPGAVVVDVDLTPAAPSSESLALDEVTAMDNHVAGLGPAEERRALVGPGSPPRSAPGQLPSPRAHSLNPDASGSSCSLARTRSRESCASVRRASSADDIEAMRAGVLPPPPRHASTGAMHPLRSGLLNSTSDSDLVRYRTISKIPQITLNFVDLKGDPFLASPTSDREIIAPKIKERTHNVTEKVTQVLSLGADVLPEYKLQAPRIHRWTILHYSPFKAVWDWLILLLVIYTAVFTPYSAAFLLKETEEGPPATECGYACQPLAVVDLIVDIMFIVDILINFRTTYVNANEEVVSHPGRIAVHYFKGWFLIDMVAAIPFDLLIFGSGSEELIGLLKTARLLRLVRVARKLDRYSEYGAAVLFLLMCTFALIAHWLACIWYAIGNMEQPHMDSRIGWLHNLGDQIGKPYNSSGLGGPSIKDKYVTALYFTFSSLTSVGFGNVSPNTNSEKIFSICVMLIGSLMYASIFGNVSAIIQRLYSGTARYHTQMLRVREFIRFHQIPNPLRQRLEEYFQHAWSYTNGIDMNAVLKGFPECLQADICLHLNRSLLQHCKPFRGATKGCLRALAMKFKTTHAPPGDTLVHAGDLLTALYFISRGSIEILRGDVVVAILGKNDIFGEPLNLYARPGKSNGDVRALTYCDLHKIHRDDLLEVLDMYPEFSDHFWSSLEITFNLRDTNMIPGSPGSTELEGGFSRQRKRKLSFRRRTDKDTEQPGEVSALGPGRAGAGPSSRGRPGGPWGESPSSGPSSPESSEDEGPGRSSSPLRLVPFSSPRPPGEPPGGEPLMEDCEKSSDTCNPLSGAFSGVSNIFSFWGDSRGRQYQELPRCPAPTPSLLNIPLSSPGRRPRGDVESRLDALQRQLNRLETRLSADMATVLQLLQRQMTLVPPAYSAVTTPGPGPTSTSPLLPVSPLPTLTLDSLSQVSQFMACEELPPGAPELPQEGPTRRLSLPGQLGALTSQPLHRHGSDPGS
Run Description: Inhibition of human ERG expressed in HEK293 cells at 10 uM by electrophysiological method relative to control
Assay type: toxicity, cell-based
Details: HEK293 cells expressing hERG

Compound	inhibition at 10 µM, %
NCCON=C1CCC(CN2CCN(c3nc(=O)c4cc(C(F)(F)F)cc([N+](=O)[O-])c4s3)CC2)CC1 (configuration not stated)	5.66
O=C(O)CON=C1CCC(CN2CCN(c3nc(=O)c4cc(C(F)(F)F)cc([N+](=O)[O-])c4s3)CC2)CC1 (configuration not stated)	5.8

----------
Run Description: Half life in female ICR mouse at 25 mg/kg, po administered as single dose measured upto 24 hrs by HPLC analysis
Assay type: ADME, organism-based
Details: in vivo

Compound	half-life, h
O=C(O)CON=C1CCC(CN2CCN(c3nc(=O)c4cc(C(F)(F)F)cc([N+](=O)[O-])c4s3)CC2)CC1 (centres undefined)	3.06
NCCON=C1CCC(CN2CCN(c3nc(=O)c4cc(C(F)(F)F)cc([N+](=O)[O-])c4s3)CC2)CC1 (centres undefined)	3.6
O=c1nc(N2CCN(CC3CCCCC3)CC2)sc2c([N+](=O)[O-])cc(C(F)(F)F)cc12	6.43
CON=C1CCC(CN2CCN(c3nc(=O)c4cc(C(F)(F)F)cc([N+](=O)[O-])c4s3)CC2)CC1 (centres undefined)	5.24

----------
Run Description: Water solubility of the compound in 60% acetronitrile/40% water meausred after 24 hrs by HPLC-UV analysis
Assay type: physicochemical
Details: 60% acetonitrile/40% water

Molecule	solubility at 24 h
NCCON=C1CCC(CN2CCN(c3nc(=O)c4cc(C(F)(F)F)cc([N+](=O)[O-])c4s3)CC2)CC1 (stereo unspecified)	> 2000 µg/mL

Each recorded value in this set is attributed to ChEMBL document CHEMBL6127042.
